Biological target: T1, FcRn-p3 fusion protein (human, UniProt P55899 24-297; P61769 21-119)
T1 construct: baculovirus expressed; coated on ELISA wells; not shown: amino terminal part of bacteriophage p3 protein and CVDE protein
T1 sequence (P55899 24-297, chain 1 of 2): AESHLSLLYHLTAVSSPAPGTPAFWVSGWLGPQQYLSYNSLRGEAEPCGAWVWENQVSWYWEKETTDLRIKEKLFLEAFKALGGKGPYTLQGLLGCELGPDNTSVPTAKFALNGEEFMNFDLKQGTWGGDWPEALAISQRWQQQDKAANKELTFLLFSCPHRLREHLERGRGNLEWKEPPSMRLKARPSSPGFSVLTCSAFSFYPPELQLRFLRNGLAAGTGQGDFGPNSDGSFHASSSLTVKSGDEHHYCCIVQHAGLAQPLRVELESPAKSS
T1 sequence (P61769 21-119, chain 2 of 2): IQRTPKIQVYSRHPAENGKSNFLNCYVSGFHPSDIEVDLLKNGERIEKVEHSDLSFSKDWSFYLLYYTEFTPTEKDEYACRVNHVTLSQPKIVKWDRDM
Assay: phage ELISA pH6 (est.)
Readings of Ratio/FWT for the listed binders
Just the number in fold, nothing appended.

{"columns": ["binder", "endpoint-result"],
 "data": [
  ["T8A_41 (other, EU numbering) CPPCPAPELLGGPSVFLFPPKPKDTLMISRTPEVTCVVEDVSHEDPEVKFNWYVDGVEVHNAKTKPREEQYNSTYRVVSVLTVLHQDWLNGKEYKCKVSNKALPAPIEKTISKAKGQSREPQVYTLPPSRDELTKNQVSLTCLVKGFYPSDIVVEWESNGQPENNYKTTPPVLDSDGSFFLYSKLTVDKSRWQQGNVFSCSVMHEALHSHYTQKSLSLSPGK", 7.9]
]}

Look up Ratio/FWT: M3A_06 (other, EU numbering) CPPCPAPELLGGPSVLLFPPKPKDTLMISRTPEVTCVVEDVSHEDPEVKFNWYVDGVEVHNAKTKPREEQYNSTYRVVSVLTVLHQDWLNGKEYKCKVSNKALPAPIEKTISKAKGQPREPQVYTLPPSRDELTKNQVSLTCLVKGFYPSDITVEWESNGQPENNYKTTPPMLDSDGSFFLYSKLTVDKSRWQQGNVFSCSVMHEALHNHYTQKSLSLSPGK
5.7
